test: Pharmacokinetics in male Sprague Dawley rats (oral 7 days, iv Day 1); settings: male, Sprague Dawley, rat, in vivo, iv, 5 mg/kg, elimination half-life
measure.name: half-life (h)
Answers are plain numbers, in h.

The compound listed as C[C@](O)(Cn1cc(F)cn1)C(=O)Nc1ccc(C#N)c(C(F)(F)F)c1 [Compound 1002] shows half-life equal to 2.6

----------
assay: Pharmacokinetics in male Sprague Dawley rats (oral 7 days, iv Day 1); details: male, Sprague Dawley, rat, in vivo, po, 20 mg/kg
measure.name: AUC(0-t) (ng·h/mL)
One number for each entry, in ng·h/mL.

smiles.data | recorded.result
C[C@](O)(Cn1cc(F)cn1)C(=O)Nc1ccc(C#N)c(C(F)(F)F)c1 | 37000

The compound listed as C[C@](O)(Cn1cc(C#N)cn1)C(=O)Nc1cnc(C#N)c(C(F)(F)F)c1 shows AUC(0-t) equal to 102000

----------
assay: Pharmacokinetics in male Sprague Dawley rats (oral 7 days, iv Day 1); details: male, Sprague Dawley, rat, in vivo, po, 5 mg/kg
measure.name: AUC(0-t) (ng·h/mL)
Give bare numbers, in ng·h/mL.

The molecule listed as C[C@](O)(Cn1cc(F)cn1)C(=O)Nc1ccc(C#N)c(C(F)(F)F)c1 shows AUC(0-t) equal to 6860

----------
assay: Pharmacokinetics in male Sprague Dawley rats (oral 7 days, iv Day 1); settings: male, Sprague Dawley, rat, in vivo, po, 1 mg/kg
measure.name: AUC(0-t) (ng·h/mL)
Give bare numbers, in ng·h/mL.

The molecule listed as C[C@](O)(Cn1cc(C#N)cn1)C(=O)Nc1cnc(C#N)c(C(F)(F)F)c1 [Compound 1065] shows AUC(0-t) equal to 7300

----------
assay: Pharmacokinetics in male Sprague Dawley rats (oral 7 days, iv Day 1); conditions: male, Sprague Dawley, rat, in vivo, po, 10 mg/kg/day
measure.name: Cmax (ng/mL)
Answers are plain numbers, in ng/mL.

The compound listed as C[C@](O)(Cn1cc(C#N)cn1)C(=O)Nc1cnc(C#N)c(C(F)(F)F)c1 shows Cmax equal to 3550

----------
assay: Pharmacokinetics in male Sprague Dawley rats (oral 7 days, iv Day 1); settings: male, Sprague Dawley, rat, in vivo, po, 5 mg/kg/day
measure.name: Tmax

The molecule listed as C[C@](O)(Cn1cc(C#N)cn1)C(=O)Nc1cnc(C#N)c(C(F)(F)F)c1 shows Tmax equal to 6 h

----------
test: Pharmacokinetics in male Sprague Dawley rats (oral 7 days, iv Day 1); conditions: male, Sprague Dawley, rat, in vivo, po, 30 mg/kg
measure.name: Cmax (ng/mL)
Answers are plain numbers, in ng/mL.

The compound listed as C[C@](O)(Cn1cc(F)cn1)C(=O)Nc1ccc(C#N)c(C(F)(F)F)c1 shows Cmax equal to 3330

----------
assay: Pharmacokinetics in male Sprague Dawley rats (oral 7 days, iv Day 1); settings: male, Sprague Dawley, rat, in vivo, po, 20 mg/kg/day
measure.name: Cmax (ng/mL)
Give bare numbers, in ng/mL.

The compound listed as C[C@](O)(Cn1cc(C#N)cn1)C(=O)Nc1cnc(C#N)c(C(F)(F)F)c1 shows Cmax equal to 5550

----------
assay: Pharmacokinetics in male Sprague Dawley rats (oral 7 days, iv Day 1); conditions: male, Sprague Dawley, rat, in vivo, iv, 5 mg/kg
measure.name: AUC(0-inf) (ng·h/mL)
One number for each entry, in ng·h/mL.

smiles.data | AUC(0-inf) (ng·h/mL)
C[C@](O)(Cn1cc(C#N)cn1)C(=O)Nc1cnc(C#N)c(C(F)(F)F)c1 | 40700

Here is the next item to consider.
The compound listed as C[C@](O)(Cn1cc(F)cn1)C(=O)Nc1ccc(C#N)c(C(F)(F)F)c1 shows AUC(0-inf) equal to 9600

----------
assay: Pharmacokinetics in male Sprague Dawley rats (oral 7 days, iv Day 1); conditions: male, Sprague Dawley, rat, in vivo, po, 5 mg/kg/day
measure.name: Cmax (ng/mL)
Answers are plain numbers, in ng/mL.

The compound listed as C[C@](O)(Cn1cc(C#N)cn1)C(=O)Nc1cnc(C#N)c(C(F)(F)F)c1 shows Cmax equal to 2220

----------
format: in vitro ADME; settings: human liver microsomes
measure.name: HLM Metabolism (H.L. min)
Give bare numbers, in min.

smiles.data | HLM Metabolism (H.L. min)
C[C@](O)(Cn1cc(Cl)c(Br)n1)C(=O)Nc1ccc(C#N)c(C(F)(F)F)c1 | 319
C[C@](O)(Cn1cc(C(F)(F)F)cn1)C(=O)Nc1ccc(C#N)c(C(F)(F)F)c1 | 400

Lab note: each molecule below needs its HLM Metabolism (H.L. min) filled in.
1. C[C@](O)(Cn1ccc2cc(F)ccc21)C(=O)Nc1ccc(C#N)c(C(F)(F)F)c1
2. C[C@](O)(Cn1cc(F)cn1)C(=O)Nc1ccc(C#N)c(C(F)(F)F)c1
3. C[C@](O)(Cn1cc(F)cn1)C(=O)Nc1cnc(C#N)c(C(F)(F)F)c1
4. C[C@](O)(Cn1cc(C#N)cn1)C(=O)Nc1ccc(C#N)c(C(F)(F)F)c1

A)
1: 6; 2: 82; 3: 108; 4: 400

The molecule listed as C[C@](O)(Cn1cc(Br)c(F)n1)C(=O)Nc1ccc(C#N)c(C(F)(F)F)c1 shows HLM Metabolism (H.L. min) equal to 138

----------
experiment: Pharmacokinetics in male Sprague Dawley rats (oral 7 days, iv Day 1); settings: male, Sprague Dawley, rat, in vivo, po, 5 mg/kg, t1/2
measure.name: half-life (h)
Give bare numbers, in h.

The compound listed as C[C@](O)(Cn1cc(F)cn1)C(=O)Nc1ccc(C#N)c(C(F)(F)F)c1 shows half-life equal to 4.87

----------
Hi there, I'd appreciate the recorded Vd for every entry that follows.
assay: Pharmacokinetics in male Sprague Dawley rats (oral 7 days, iv Day 1); settings: male, Sprague Dawley, rat, in vivo, iv, 5 mg/kg
One number for each entry, in L/kg.

smiles.data | Vd, L/kg
C[C@](O)(Cn1cc(C#N)cn1)C(=O)Nc1cnc(C#N)c(C(F)(F)F)c1 | 1.86

Here is the next item to consider.
The compound listed as C[C@](O)(Cn1cc(F)cn1)C(=O)Nc1ccc(C#N)c(C(F)(F)F)c1 shows Vd equal to 2.14

----------
assay: Pharmacokinetics in male Sprague Dawley rats (oral 7 days, iv Day 1); conditions: male, Sprague Dawley, rat, in vivo, iv, 5 mg/kg
measure.name: half-life (h)
Numbers only, in h.

The molecule listed as C[C@](O)(Cn1cc(C#N)cn1)C(=O)Nc1cnc(C#N)c(C(F)(F)F)c1 shows half-life equal to 10.5

----------
Hi there, I'd appreciate the recorded clearance for every entry that follows.
assay: Pharmacokinetics in male Sprague Dawley rats (oral 7 days, iv Day 1); conditions: male, Sprague Dawley, rat, in vivo, iv, 5 mg/kg
One number for each entry, in mL/min/kg.

smiles.data | value.unit | clearance
C[C@](O)(Cn1cc(C#N)cn1)C(=O)Nc1cnc(C#N)c(C(F)(F)F)c1 | mL/min/kg | 2.05

Here is the next item to consider.
The compound listed as C[C@](O)(Cn1cc(F)cn1)C(=O)Nc1ccc(C#N)c(C(F)(F)F)c1 shows clearance equal to 8.68

----------
Hi there, I'd appreciate the recorded C0 for every entry that follows.
assay: Pharmacokinetics in male Sprague Dawley rats (oral 7 days, iv Day 1); settings: male, Sprague Dawley, rat, in vivo, iv, 5 mg/kg
Give bare numbers, in ng/mL.

molecule | recorded.result
C[C@](O)(Cn1cc(F)cn1)C(=O)Nc1ccc(C#N)c(C(F)(F)F)c1 [Compound 1002] | 2460

Here is the next item to consider.
The molecule listed as C[C@](O)(Cn1cc(C#N)cn1)C(=O)Nc1cnc(C#N)c(C(F)(F)F)c1 [Compound 1065] shows C0 equal to 2510

----------
experiment: Pharmacokinetics in male Sprague Dawley rats (oral 7 days, iv Day 1); settings: male, Sprague Dawley, rat, in vivo, po, 5 mg/kg
measure.name: Tmax (h)
Numbers only, in h.

The compound listed as C[C@](O)(Cn1cc(F)cn1)C(=O)Nc1ccc(C#N)c(C(F)(F)F)c1 [Compound 1002] shows Tmax equal to 1

----------
test: Pharmacokinetics in male Sprague Dawley rats (oral 7 days, iv Day 1); conditions: male, Sprague Dawley, rat, in vivo, po, 10 mg/kg/day
measure.name: AUC(0-t) (ng·h/mL)
Answers are plain numbers, in ng·h/mL.

The compound listed as C[C@](O)(Cn1cc(C#N)cn1)C(=O)Nc1cnc(C#N)c(C(F)(F)F)c1 shows AUC(0-t) equal to 59500

----------
assay: Pharmacokinetics in male Sprague Dawley rats (oral 7 days, iv Day 1); conditions: male, Sprague Dawley, rat, in vivo, po, 60 mg/kg
measure.name: Cmax

The compound listed as C[C@](O)(Cn1cc(F)cn1)C(=O)Nc1ccc(C#N)c(C(F)(F)F)c1 [Compound 1002] shows Cmax equal to 3800 ng/mL

The origin of these recorded values is patent US12202815B2.
